target-entity: T1, hPRLR.mmh (soluble monomeric human PRLR) (human)
T1 construct: soluble monomeric PRLR protein
T1 chain: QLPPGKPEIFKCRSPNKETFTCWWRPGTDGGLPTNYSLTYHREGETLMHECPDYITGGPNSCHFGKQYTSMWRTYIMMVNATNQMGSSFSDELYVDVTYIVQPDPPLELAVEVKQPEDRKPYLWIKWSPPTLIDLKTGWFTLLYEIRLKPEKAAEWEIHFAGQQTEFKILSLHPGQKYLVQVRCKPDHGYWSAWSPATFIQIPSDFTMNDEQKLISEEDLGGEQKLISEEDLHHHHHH
test-name: SPR (Biacore), antibody capture, 37 C
Protocol: Measurements were conducted on a T200 Biacore instrument. Kinetic association (kₐ) and dissociation (kd) rate constants were determined by processing and fitting the data to a 1:1 binding model using Scrubber 2.0 curve fitting software.
Each record here notes measured koff.
parameter-measured: koff (s⁻¹)

binder="H1H6967N (antibody, human IgG1, V domains shown, also called H2M6967N) VH: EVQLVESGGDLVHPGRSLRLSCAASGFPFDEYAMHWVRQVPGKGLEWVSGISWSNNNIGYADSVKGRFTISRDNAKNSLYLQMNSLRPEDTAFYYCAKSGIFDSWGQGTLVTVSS VL: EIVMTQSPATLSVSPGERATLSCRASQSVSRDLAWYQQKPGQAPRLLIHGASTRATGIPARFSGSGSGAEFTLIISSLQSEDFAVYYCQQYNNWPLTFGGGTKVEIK" parameter_measured=koff recorded_value=0.000933
binder="H1H6797P (antibody, human IgG1, V domains shown, human IgG1 Fc (H1H)) VH: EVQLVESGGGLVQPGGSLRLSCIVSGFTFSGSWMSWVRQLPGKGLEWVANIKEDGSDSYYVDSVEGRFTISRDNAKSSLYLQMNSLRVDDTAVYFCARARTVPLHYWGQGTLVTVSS VL: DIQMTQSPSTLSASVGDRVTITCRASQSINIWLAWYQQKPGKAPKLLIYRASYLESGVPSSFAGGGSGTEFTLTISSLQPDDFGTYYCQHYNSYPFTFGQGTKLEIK" parameter_measured=koff recorded_value=0.00822
binder="H1H6953N (antibody, human IgG1, V domains shown, also called H1M6953N) VH: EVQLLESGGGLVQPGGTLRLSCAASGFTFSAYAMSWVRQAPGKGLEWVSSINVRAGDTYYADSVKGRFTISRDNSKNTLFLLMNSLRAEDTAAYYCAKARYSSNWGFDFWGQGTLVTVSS VL: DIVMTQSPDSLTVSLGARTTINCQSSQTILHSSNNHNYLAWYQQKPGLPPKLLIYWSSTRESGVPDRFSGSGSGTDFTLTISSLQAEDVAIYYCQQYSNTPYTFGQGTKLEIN" parameter_measured=koff recorded_value=0.00122
binder="H1H6959N2 (antibody, human IgG1, V domains shown, also called H2M6959N2) VH: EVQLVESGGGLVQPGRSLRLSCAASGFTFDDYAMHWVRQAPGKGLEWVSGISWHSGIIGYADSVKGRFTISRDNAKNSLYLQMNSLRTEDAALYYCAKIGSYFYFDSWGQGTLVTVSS VL: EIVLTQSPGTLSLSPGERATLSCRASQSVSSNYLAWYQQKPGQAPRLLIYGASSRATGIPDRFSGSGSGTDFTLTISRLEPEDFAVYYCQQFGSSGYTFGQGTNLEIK" parameter_measured=koff recorded_value=0.0277
binder="H1H6803P (antibody, human IgG1, V domains shown, human IgG1 Fc (H1H)) VH: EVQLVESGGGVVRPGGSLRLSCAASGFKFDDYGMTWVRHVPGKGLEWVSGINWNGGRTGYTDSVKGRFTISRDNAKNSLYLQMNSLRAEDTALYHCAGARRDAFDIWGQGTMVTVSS VL: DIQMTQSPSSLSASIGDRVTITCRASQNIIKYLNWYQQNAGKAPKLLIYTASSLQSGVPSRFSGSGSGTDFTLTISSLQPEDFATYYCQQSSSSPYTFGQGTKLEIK" parameter_measured=koff recorded_value=0.000364
binder="H1H6966N (antibody, human IgG1, V domains shown, also called H2M6966N) VH: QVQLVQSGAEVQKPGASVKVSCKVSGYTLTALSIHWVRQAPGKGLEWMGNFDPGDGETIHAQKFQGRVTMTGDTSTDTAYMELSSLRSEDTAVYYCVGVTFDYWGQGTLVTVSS VL: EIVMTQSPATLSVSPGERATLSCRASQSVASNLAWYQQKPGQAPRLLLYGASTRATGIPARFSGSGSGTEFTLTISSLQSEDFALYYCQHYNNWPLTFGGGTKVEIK" parameter_measured=koff recorded_value=0.00096
binder="H1H6793P (antibody, human IgG1, V domains shown, human IgG1 Fc (H1H)) VH: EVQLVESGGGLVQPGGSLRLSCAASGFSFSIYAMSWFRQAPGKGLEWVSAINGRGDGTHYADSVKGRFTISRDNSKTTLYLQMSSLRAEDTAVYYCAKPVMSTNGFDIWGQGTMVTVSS VL: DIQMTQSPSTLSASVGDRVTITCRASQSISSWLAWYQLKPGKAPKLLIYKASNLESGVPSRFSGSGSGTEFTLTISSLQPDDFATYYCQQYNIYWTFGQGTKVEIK" parameter_measured=koff recorded_value=0.00102
binder="H1H6765P (antibody, human IgG1, V domains shown, human IgG1 Fc (H1H)) VH: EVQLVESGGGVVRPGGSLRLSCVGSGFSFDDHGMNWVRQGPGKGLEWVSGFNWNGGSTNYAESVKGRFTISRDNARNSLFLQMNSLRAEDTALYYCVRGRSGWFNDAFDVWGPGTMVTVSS VL: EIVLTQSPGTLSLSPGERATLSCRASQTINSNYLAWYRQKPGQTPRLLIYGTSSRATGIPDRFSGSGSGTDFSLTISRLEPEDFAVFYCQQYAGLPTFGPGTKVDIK" parameter_measured=koff recorded_value=0.000366
binder="H1H6800P (antibody, human IgG1, V domains shown, human IgG1 Fc (H1H)) VH: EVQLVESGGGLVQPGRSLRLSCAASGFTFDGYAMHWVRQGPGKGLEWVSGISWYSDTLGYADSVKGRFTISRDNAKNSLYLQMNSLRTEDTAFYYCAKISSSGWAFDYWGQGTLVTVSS VL: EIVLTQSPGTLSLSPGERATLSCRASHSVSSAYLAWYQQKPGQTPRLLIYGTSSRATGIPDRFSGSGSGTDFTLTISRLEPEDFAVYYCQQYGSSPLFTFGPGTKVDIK" parameter_measured=koff recorded_value=0.00119
binder="H1H6804P (antibody, human IgG1, V domains shown, human IgG1 Fc (H1H)) VH: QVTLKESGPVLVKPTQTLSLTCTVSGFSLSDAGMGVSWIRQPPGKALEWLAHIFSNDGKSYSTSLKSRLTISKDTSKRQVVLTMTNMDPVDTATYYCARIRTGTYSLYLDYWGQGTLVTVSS VL: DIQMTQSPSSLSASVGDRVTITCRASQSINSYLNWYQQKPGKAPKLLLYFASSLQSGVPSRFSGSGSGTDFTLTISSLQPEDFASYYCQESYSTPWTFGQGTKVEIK" parameter_measured=koff recorded_value=0.00385

These entries and their values trace back to patent US20180185504A1.
